Hello, the source for this data is ChEMBL document CHEMBL1140140, in case you need it.

assay: Volume of distribution in dog at 2.5 mg/kg, iv and 10 mg/kg, po; assay type: ADME, organism-based, Canis lupus familiaris; details: in vivo
endpoint_label: Vd (L/kg)
The reply should be a number in L/kg, with the unit left off.

Please list Vd recorded for the molecule `O=C(c1cc(Cc2n[nH]c(=O)c3ccccc23)ccc1F)N1CCN(C(=O)C2CC2)CC1`
1.3

====

assay: Oral bioavailability in dog at 10 mg/kg, po; format: ADME, organism-based, Canis lupus familiaris; details: in vivo
endpoint_label: bioavailability (%)
The reply should be a number in %, with the unit left off.

Please list bioavailability recorded for the molecule O=C(c1cc(Cc2n[nH]c(=O)c3ccccc23)ccc1F)N1CCN(C(=O)C2CC2)CC1 [OLAPARIB]
100
